MEASURED_TARGET: GDP-bound KRAS wild-type protein (Homo sapiens, UniProt P01116)
Sequence (P01116 1-188 isoform P01116-2): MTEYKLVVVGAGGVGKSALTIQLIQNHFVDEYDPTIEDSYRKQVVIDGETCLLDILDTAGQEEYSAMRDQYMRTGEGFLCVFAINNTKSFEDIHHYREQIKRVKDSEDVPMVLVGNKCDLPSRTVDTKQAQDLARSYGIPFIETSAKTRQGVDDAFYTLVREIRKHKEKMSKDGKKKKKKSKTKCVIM
ASSAY_NOTES: Binding to KRAS by surface plasmon resonance (SPR), dissociation constant KD
COND: 1:1 binding model
pKd: −log10 of the molar value.
Please note: MET applies when pKd is 9 or greater, and NOT MET applies otherwise.

compound="CCC[C@H]1C(=O)N[C@@H]([C@@H](C)CC)C(=O)N2CCC[C@H]2C(=O)N(C)[C@H]2C/C=C\\CCN(C2=O)[C@@H](Cc2ccc(C)cc2)C(=O)N(C)CC(=O)N[C@@H](CCc2ccc(Cl)c(Cl)c2)C(=O)N2C[C@H](OCC)C[C@H]2C(=O)NC2(CC(C)(C)C2)C(=O)N(C)[C@@H](C(CC)CC)C(=O)N(C)[C@H](C(=O)N(C)C)CC(=O)N1C [PP2638]" assigned_class="NOT MET"

(Q) Reported pKd reaches at least 9 for CCOC[C@H]1C(=O)N[C@@H]([C@@H](C)CC)C(=O)N(C)CC(=O)N(C)[C@H]2C/C=C\CCN(C2=O)[C@@H](Cc2ccc(C)cc2)C(=O)N(C)CC(=O)N[C@@H](CCc2cc(F)c(C(F)(F)F)c(F)c2)C(=O)N2C[C@H](OCC)C[C@H]2C(=O)NC2(CC(C)(C)C2)C(=O)N(C)[C@@H](C2CCCC2)C(=O)N(C)[C@H](C(=O)N(C)C)CC(=O)N1C [PP2397] ?
(A) MET

(Q) Reported pKd reaches at least 9 for C#CCN1CC(=O)N(C)[C@H]2C/C=C\CCN(C2=O)[C@@H](Cc2ccc(C)cc2)C(=O)N(C)CC(=O)N[C@@H](CCc2ccc(C(F)(F)F)c(Cl)c2)C(=O)N2C[C@H](OCC)C[C@H]2C(=O)NC2(CC(C)(C)C2)C(=O)N(C)[C@@H](C2CCCC2)C(=O)N(C)[C@H](C(=O)N(C)C)CC(=O)N(C)[C@@H](CCC)C(=O)N[C@@H](CC(C)C)C1=O [PP2526] ?
(A) NOT MET

###

System: human lung cancer strain NCI-H441
Format: cell-based
*1 amine or outer side, *2 acyl side, *3 side chain or, on linkers, in order; H or OH if unused. Where a SMILES comes first, the peptide text is derived from it. Bridges are numbered along the chain shown (N, C = ends). [ ]: non-standard residue; d: D form. The star is where a group is joined. hPhe(3-Cl-4-CF3) = N[C@@H](CCc1ccc(C(F)(F)F)c(Cl)c1)C(=O)O; X8 = CCCN([C@@H](COCCC(C)C)C(=O)[*:2])[*:1]; NMeGly(cPent) = CN[C@H](C(=O)O)C1CCCC1; NMeD = CN[C@@H](CC(=O)O)C(=O)O; NMeL = CN[C@@H](CC(C)C)C(=O)O; Morpholide = C1CN(*)CCO1; NMeA = CN[C@@H](C)C(=O)O; Aze = O=C(O)[C@@H]1CCN1; Ac4c = NC1(C(=O)O)CCC1; Sar = CNCC(=O)O
REPORTED_METRIC: pIC50
# pIC50: negative log10 of molar concentration; output just the value

molecule=CCC[C@H]1C(=O)N[C@@H]([C@@H](C)CC)C(=O)N(C)CC(=O)N(C)[C@H]2C/C=C\CCN(C2=O)[C@@H](Cc2ccc(C)cc2)C(=O)N(C)CC(=O)N[C@@H](CCc2ccc(C(F)(F)F)c(OC)c2)C(=O)N2C[C@H](OCC)C[C@H]2C(=O)NC2(CC(C)(C)C2)C(=O)N(C)[C@@H](C(CC)CC)C(=O)N(C)[C@H](C(=O)N(C)C)CC(=O)N1C numeric_readout=7.95
molecule=CC[C@H](C)[C@@H]1NC(=O)[C@H](CC)N(C)C(=O)C[C@@H](C(=O)N(C)C)N(C)C(=O)[C@H](C2CCCC2)N(C)C(=O)C2(CCC2)NC(=O)[C@@H]2C[C@H](OC)CN2C(=O)[C@H](CCc2cc(F)c(C(F)(F)F)c(F)c2)NC(=O)CN(C)C(=O)[C@H](Cc2ccc(C(F)(F)F)cc2)N2CC/C=C\C[C@@H](C2=O)N(C)C(=O)CN(C)C1=O numeric_readout=6.92

Next molecule, pIC50 to be filled in.
Consider CCCN1C(=O)[C@@H]2CCN2C(=O)[C@H](C)N(C)C(=O)[C@H]([C@@H](C)CC)NC(=O)[C@H](CC(C)C)N(C)C(=O)C[C@@H](C(=O)N2CCOCC2)N(C)C(=O)[C@H](C2CCCC2)N(C)C(=O)C2(CCC2)NC(=O)[C@@H]2CCCN2C(=O)[C@H](CCc2ccc(C(F)(F)F)c(Cl)c2)NC(=O)CN(C)C(=O)[C@@H]1COCCC(C)C [PP1819] ([NMeL]I[NMeA][Aze][X8][Sar][hPhe(3-Cl-4-CF3)]P[Ac4c][NMeGly(cPent)][NMeD]-Morpholide; lactam N-11) . Its measured pIC50 is 6.83

###

MEASURED_TARGET: GDP-bound KRAS wild-type protein (Homo sapiens)
ASSAY_NOTES: Binding to KRAS by surface plasmon resonance (SPR), dissociation constant KD
COND: Single Cycle Kinetics
Lab note: cut-off is 1 nM. Strictly less in Kd is 1. Exactly 1 nM or more is 0.

cpd_smiles=CCO[C@@H]1C[C@H]2C(=O)NC3(CCC3)C(=O)N(C)[C@@H](C3CCCC3)C(=O)N(C)[C@H](C(=O)N(C)C)CC(=O)N(C)[C@@H](CC)C(=O)N[C@@H]([C@@H](C)CC)C(=O)N(C)CC(=O)N(C)[C@H]3CCCCCN(C3=O)[C@@H](Cc3nccs3)C(=O)N(C)CC(=O)N[C@@H](CCc3cc(F)c(C(F)(F)F)c(F)c3)C(=O)N2C1 assigned_class=0
cpd_smiles=CCO[C@@H]1C[C@H]2C(=O)NC3(CCC3)C(=O)N(C)[C@@H](C3CCCC3)C(=O)N(C)[C@H](C(=O)N(C)C)CC(=O)N(C)[C@@H](CC(C)C)C(=O)N[C@@H]([C@@H](C)CC)C(=O)N(C)CC(=O)N(C)[C@H]3C[C@@H](C)CCN(C3=O)[C@@H](Cc3ccc(C(F)(F)F)cc3)C(=O)N(C)CC(=O)N[C@@H](CCc3cc(F)c(C(F)(F)F)c(F)c3)C(=O)N2C1 assigned_class=1
cpd_smiles=CCCO[C@@H]1C[C@H]2C(=O)NC3(CC(C)(C)C3)C(=O)N(C)[C@@H](C3CCCC3)C(=O)N(C)[C@H](C(=O)N(C)CC)CC(=O)N(C)[C@@H](COCC)C(=O)N[C@@H]([C@@H](C)CC)C(=O)N3CCC[C@H]3C(=O)N(C)[C@H]3C/C=C\CCN(C3=O)[C@@H](Cc3ccc(C)cc3)C(=O)N(C)CC(=O)N[C@@H](CCc3ccc(C(F)(F)F)c(OC)c3)C(=O)N2C1 assigned_class=0
cpd_smiles=CCCO[C@@H]1C[C@H]2C(=O)NC3(CC(C)(C)C3)C(=O)N(C)[C@@H](C3CCCC3)C(=O)N(C)[C@H](C(=O)N(C)CC)CC(=O)N[C@@H](COCC)C(=O)N[C@@H]([C@@H](C)CC)C(=O)N3CCC[C@H]3C(=O)N(C)[C@H]3C/C=C\CCN(C3=O)[C@@H](Cc3ccc(C)cc3)C(=O)N(C)CC(=O)N[C@@H](CCc3cc(F)c(C(F)(F)F)c(F)c3)C(=O)N2C1 assigned_class=0
cpd_smiles=CCC[C@H]1C(=O)N[C@@H](C2CCCC2)C(=O)N(C)CC(=O)N(C)[C@H]2C/C=C\CCN(C2=O)[C@@H](Cc2ccc(C)cc2)C(=O)N(C)CC(=O)N[C@@H](CCc2ccc(C(F)(F)F)c(Cl)c2)C(=O)N2CC3(CC3)C[C@H]2C(=O)N(C)C2(CCC2)C(=O)N(C)[C@@H](C(CC)CC)C(=O)N(C)[C@H](C(=O)N(C)C)CC(=O)N1C assigned_class=1

Switching to the query record.
(Q) Is Kd strictly under 1 nM for the entry CC[C@H](C)[C@@H]1NC(=O)[C@H](CC(C)C)N(C)C(=O)C[C@@H](C(=O)N2CCOCC2)N(C)C(=O)[C@H](C2CCCC2)N(C)C(=O)C2(CCC2)NC(=O)[C@@H]2[C@H]3C[C@H]3CN2C(=O)[C@H](CCc2cc(F)c(C(F)(F)F)c(F)c2)NC(=O)CN(C)C(=O)[C@H](Cc2ccc(C(F)(F)F)cc2)N2CCCCC[C@@H](C2=O)N(C)C(=O)CN(C)C1=O ?
(A) 1

###

MEASURED_TARGET: GDP-bound KRAS wild-type protein (Homo sapiens)
ASSAY_NOTES: Binding to KRAS by surface plasmon resonance (SPR), dissociation constant KD
COND: Single Cycle Kinetics, 1:1 binding model
Experimental: Surface plasmon resonance was used to analyze the binding affinity of compounds for KRAS, NRAS, and HRAS. […] The resulting sensorgram was subjected to curve fitting based on a 1:1 binding model on Biacore Insight Evaluation Software or T200 Evaluation Software, and thereby the dissociation constant KD of each compound with respect to KRAS, NRAS, and HRAS was determined. […]
REPORTED_METRIC: pKd
# pKd: negative log10 of molar concentration; output just the value

cpd_smiles=CCO[C@@H]1C[C@H]2C(=O)NC3(CCCC3)C(=O)N(C)[C@@H](C3CCCC3)C(=O)N(C)[C@H](C(=O)N3CCOCC3)CC(=O)N(C)[C@@H](CC)C(=O)N[C@@H]([C@@H](C)CC)C(=O)N(C)CC(=O)N(C)[C@H]3C[C@@H](C)[C@@H](C)CN(C3=O)[C@@H](Cc3ccc(C(F)(F)F)cc3)C(=O)N(C)CC(=O)N[C@@H](CCc3ccc(C(F)(F)F)c(Cl)c3)C(=O)N2C1 numeric_readout=10.17

Next compound, pKd to be filled in.
Consider CC[C@H](C)[C@@H]1NC(=O)[C@H](CC(C)C)N(C)C(=O)C[C@@H](C(=O)N2CCOCC2)N(C)C(=O)[C@H](C2CCCC2)N(C)C(=O)C2(CCCC2)NC(=O)[C@@H]2CCCN2C(=O)[C@H](CCc2ccc(C(F)(F)F)c(Cl)c2)NC(=O)CN(C)C(=O)[C@H](Cc2ccccc2)N2CCCC[C@@H](C2=O)N(C)C(=O)CN(C)C1=O . Its measured pKd is 10.02
